tested on: B16; assay: Growth inhibition of mouse B16 2F2 cells after 3 days; format: functional, cell-based; details: B16, 72 h
Reported values of pIC50 for individual entries
Scale: pIC50 equals -log10([C]), with [C] in mol/L.

Past entries and their recorded results:
{"columns": ["molecule", "pIC50"],
 "data": [
  ["C=C(C)[C@@H]1CC[C@]2(C)CC[C@]3(C)[C@H](CC[C@@H]4[C@@]5(C)CCC(=O)C(C)(C)[C@@H]5CC[C@]43C)[C@@H]12", 4.60],
  ["CC1(C)CC[C@]2(CO)CC[C@]3(C)C(=CC[C@@H]4[C@@]5(C)CC[C@H](O)C(C)(C)[C@@H]5CC[C@]43C)[C@@H]2C1", 4.48],
  ["C[C@H]1[C@H](C)CC[C@]2(CO)CC[C@]3(C)C(=CC[C@@H]4[C@@]5(C)CC[C@H](O)C(C)(C)[C@@H]5CC[C@]43C)[C@H]12", 4.33],
  ["C=C(C)[C@@H]1CC[C@]2(CO)CC[C@]3(C)[C@H](CC[C@@H]4[C@@]5(C)CCC(=O)C(C)(C)[C@@H]5CC[C@]43C)[C@@H]12", 4.53],
  ["C=C(C)[C@@H]1CC[C@]2(C=O)CC[C@]3(C)[C@H](CC[C@@H]4[C@@]5(C)CC[C@H](O)C(C)(C)[C@@H]5CC[C@]43C)[C@@H]12", 5.19],
  ["C[C@H]1[C@H](C)CC[C@]2(C(=O)O)CC[C@]3(C)C(=CC[C@@H]4[C@@]5(C)CC[C@H](O)C(C)(C)[C@@H]5CC[C@]43C)[C@H]12", 5.51]
]}

// Input: `C=C(C)[C@@H]1CC[C@]2(C=O)CC[C@]3(C)[C@H](CC[C@@H]4[C@@]5(C)CCC(=O)C(C)(C)[C@@H]5CC[C@]43C)[C@@H]12` . Output its pIC50 only.
5.39

// Input: `C=C(C)[C@@H]1CC[C@]2(C)CC[C@]3(C)[C@H](CC[C@@H]4[C@@]5(C)CC[C@H](O)C(C)(C)[C@@H]5CC[C@]43C)[C@@H]12` . Output its pIC50 only.
4.42

// Input: `C[C@H]1[C@H](C)CC[C@]2(C)CC[C@]3(C)C(=CC[C@@H]4[C@@]5(C)CC[C@H](O)C(C)(C)[C@@H]5CC[C@]43C)[C@H]12` . Output its pIC50 only.
4.30

// Input: `C[C@H]1[C@H](C)CC[C@]2(C)CC[C@]3(C)C(=CC[C@@H]4[C@@]5(C)CCC(=O)C(C)(C)[C@@H]5CC[C@]43C)[C@H]12` . Output its pIC50 only.
4.39

// Input: `CC1(C)CC[C@]2(C)CC[C@]3(C)C(=CC[C@@H]4[C@@]5(C)CC[C@H](O)C(C)(C)[C@@H]5CC[C@]43C)[C@@H]2C1` . Output its pIC50 only.
4.31

// Input: C=C(C)[C@@H]1CC[C@]2(C)CC[C@]3(C)[C@H](CC[C@@H]4[C@@]5(C)CC[C@H](OC(C)=O)C(C)(C)[C@@H]5CC[C@]43C)[C@@H]12 [LUPENYL ACETATE] . Output its pIC50 only.
4.64

// Input: C=C(C)[C@@H]1CC[C@]2(COC(C)=O)CC[C@]3(C)[C@H](CC[C@@H]4[C@@]5(C)CC[C@H](OC(C)=O)C(C)(C)[C@@H]5CC[C@]43C)[C@@H]12 [BETULIN DIACETATE] . Output its pIC50 only.
4.43
